Biological target: NR2B (Rattus norvegicus (Rat))
Sequence (Q00960 27-1482, other chains not shown): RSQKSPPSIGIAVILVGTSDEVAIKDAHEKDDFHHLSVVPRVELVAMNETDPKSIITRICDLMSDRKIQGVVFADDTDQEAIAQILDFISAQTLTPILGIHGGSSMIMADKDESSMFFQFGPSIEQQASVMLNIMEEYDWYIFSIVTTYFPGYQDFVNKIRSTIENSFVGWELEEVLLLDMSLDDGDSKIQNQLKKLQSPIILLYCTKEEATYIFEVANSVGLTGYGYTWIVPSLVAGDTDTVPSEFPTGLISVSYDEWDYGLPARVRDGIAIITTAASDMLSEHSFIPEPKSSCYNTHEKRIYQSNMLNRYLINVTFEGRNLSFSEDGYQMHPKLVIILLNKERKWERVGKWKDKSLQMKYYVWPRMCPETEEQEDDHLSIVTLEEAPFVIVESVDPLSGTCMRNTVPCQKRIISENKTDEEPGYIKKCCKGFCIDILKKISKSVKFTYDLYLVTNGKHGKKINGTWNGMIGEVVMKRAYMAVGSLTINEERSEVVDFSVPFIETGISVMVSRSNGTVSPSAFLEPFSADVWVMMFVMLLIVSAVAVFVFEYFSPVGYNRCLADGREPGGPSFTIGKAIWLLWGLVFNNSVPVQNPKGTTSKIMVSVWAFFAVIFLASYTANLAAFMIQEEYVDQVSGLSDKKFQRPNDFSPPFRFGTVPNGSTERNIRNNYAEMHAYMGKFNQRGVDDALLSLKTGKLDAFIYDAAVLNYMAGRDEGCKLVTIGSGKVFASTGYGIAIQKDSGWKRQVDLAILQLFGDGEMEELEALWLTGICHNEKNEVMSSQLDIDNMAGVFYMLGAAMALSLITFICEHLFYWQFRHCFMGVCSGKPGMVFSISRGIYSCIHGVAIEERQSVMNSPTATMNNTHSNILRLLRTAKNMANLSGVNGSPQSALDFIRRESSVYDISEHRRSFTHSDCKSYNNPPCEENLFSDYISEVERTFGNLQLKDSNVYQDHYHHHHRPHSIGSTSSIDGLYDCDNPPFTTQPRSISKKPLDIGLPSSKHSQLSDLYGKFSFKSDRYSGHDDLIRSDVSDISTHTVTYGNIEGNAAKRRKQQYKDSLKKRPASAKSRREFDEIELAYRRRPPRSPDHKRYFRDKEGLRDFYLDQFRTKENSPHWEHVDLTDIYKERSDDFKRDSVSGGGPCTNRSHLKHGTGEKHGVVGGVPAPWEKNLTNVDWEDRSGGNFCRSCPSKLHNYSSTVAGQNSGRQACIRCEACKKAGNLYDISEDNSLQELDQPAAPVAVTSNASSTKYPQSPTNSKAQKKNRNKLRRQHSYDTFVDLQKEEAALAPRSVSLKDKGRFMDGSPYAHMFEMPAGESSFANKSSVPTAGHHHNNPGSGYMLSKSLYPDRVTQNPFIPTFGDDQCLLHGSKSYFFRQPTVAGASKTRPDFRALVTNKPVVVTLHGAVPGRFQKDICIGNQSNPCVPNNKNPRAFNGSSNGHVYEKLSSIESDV
Assay: NR2B rat cortical neuron calcium influx assay
Conditions: rat cortical neurons, glutamate and glycine stimulated calcium influx, 2 hours compound incubation
pIC50: −log10 of the molar value.
property: pIC50

1) Oc1ccc(C(O)CN2C[C@@H]3C[C@@H](Oc4ccccc4F)[C@@H](O)[C@]3(O)C2)nc1 (single isomer, unassigned) [Example 2D] | 6.02

P. Oc1ccc(C(O)CN2C[C@H]3C[C@H](Oc4ccccc4)[C@H](O)[C@@]3(O)C2)nc1F (stereo partly shown)
Q. Oc1c(F)cc(C(O)CN2C[C@@H]3C[C@@H](Oc4ccccc4)[C@@H](O)[C@]3(O)C2)cc1F (single isomer, unassigned) [Example 5D]
R. Oc1ccc(CCN2C[C@H]3C[C@H](Oc4cccnc4F)C[C@@]3(O)C2)nc1
Task field, ranking: reported pIC50, descending order. Answer by listing the labels in the requested order. P, R, Q

----------
Target: UniProt:Q00960
Experiment: NR2B rat cortical neuron calcium influx assay
Settings: rat cortical neurons, glutamate and glycine stimulated calcium influx, 2 hours compound incubation
property: IC50 (nM)

P. Oc1c(F)cc(C(O)CN2C[C@@H]3C[C@@H](Oc4ccccc4)[C@@H](O)[C@]3(O)C2)cc1F (single isomer, unassigned) [Example 5C]
Q. Oc1c(F)cc(C(O)CN2C[C@H]3C[C@H](Oc4ccccc4)[C@H](O)[C@@]3(O)C2)cc1F (some centres unmarked)
Compare IC50: is it lower for P or for Q ? // output: label of the selected item Q
(Q: 28 nM, P: 900 nM)

----------
Target: UniProt:Q00960
Experiment: NR2B rat cortical neuron calcium influx assay
Settings: rat cortical neurons, glutamate and glycine stimulated calcium influx, 2 hours compound incubation
property: IC50 (nM)

1. Oc1ccc(C(O)CN2C[C@H]3C[C@H](Oc4ccccc4F)C[C@@]3(O)C2)nc1 (single isomer, unassigned) [Example 1B]
2. Oc1ccc(C(O)CN2C[C@H]3C[C@H](Oc4ccccc4)C[C@@]3(O)C2)nc1 (single isomer, unassigned) [Example 7D]
3. Oc1ccc(C(O)CN2C[C@H]3C[C@H](Oc4ccccc4F)[C@H](O)[C@@]3(O)C2)nc1 (single isomer, unassigned) [Example 2A]
4. Oc1c(F)cc([C@H](O)CN2C[C@H]3C[C@H](Oc4ccccc4)C[C@@]3(O)C2)cc1F [Example 10D]
Please rank the 4 items above; order by IC50, the highest number leading. Show the ranking through the labels, in the order asked for. 3, 4, 2, 1
(3: 11 nM, 4: 6 nM, 2: 3.2 nM, 1: 0.74 nM)
